Values compiled from ChEMBL document CHEMBL3872243.

Form field: Activity (one value per entry).
Assay: Antioxidant activity assessed as reduction in AAPH free radical-induced linoleic acid peroxidation activity measured at 100 ug/ml by UV spectroscopic analysis
Assay type: functional
Design: scale not given: the % may be the effect or the level left
The answer is to be given in %; state only the numeric part.

Completed entries (count: 3):
{"COMPOUND": "O=[N+]([O-])c1ccc(N2C(O)CC(c3ccccc3)N2C(c2ccc(O)cc2)N2CCOCC2)c([N+](=O)[O-])c1 (stereo not given)", "DISPLAY_UNIT": "%", "Activity": 75.4}
{"COMPOUND": "O=[N+]([O-])c1ccc(N2C(O)CC(c3ccccc3)N2C(c2ccc(Cl)cc2)N2CCOCC2)c([N+](=O)[O-])c1 (stereo not given)", "DISPLAY_UNIT": "%", "Activity": 32}
{"COMPOUND": "O=[N+]([O-])c1ccc(N2C(O)CC(c3ccccc3)N2C(c2ccccn2)N2CCOCC2)c([N+](=O)[O-])c1 (stereo not given)", "DISPLAY_UNIT": "%", "Activity": 51.3}

Quick one: Activity of CN(C)c1ccc(C(N2CCOCC2)N2C(c3ccccc3)CC(O)N2c2ccc([N+](=O)[O-])cc2[N+](=O)[O-])cc1 (stereo not given) ? 29.6

Please do the same for O=[N+]([O-])c1ccc(N2C(O)CC(c3ccccc3)N2C(c2cncs2)N2CCOCC2)c([N+](=O)[O-])c1 (stereo not given) as well. 21.5

====

Form field: log10 of MIC (one value per entry).
Assay: Antifungal activity against Microsporum audouinii after 24 hrs by two fold dilution method
Type: functional
Log10 applied to MIC; unit prior to transform: µg/mL.

Quick one: log10 of MIC of O=[N+]([O-])c1ccc(N2C(O)CC(c3ccccc3)N2C(c2ccc(Cl)cc2)N2CCOCC2)c([N+](=O)[O-])c1 (configuration not stated) ? 1.81

Please do the same for O=[N+]([O-])c1ccc(N2C(O)CC(c3ccccc3)N2C(c2ccc3c(c2)OCO3)N2CCOCC2)c([N+](=O)[O-])c1 (configuration not stated) as well. 1.51

Please do the same for O=[N+]([O-])c1ccc(N2C(O)CC(c3ccccc3)N2C(c2ccco2)N2CCOCC2)c([N+](=O)[O-])c1 (configuration not stated) as well. -0.30

Please do the same for COc1ccc(C(N2CCOCC2)N2C(c3ccccc3)CC(O)N2c2ccc([N+](=O)[O-])cc2[N+](=O)[O-])cc1 (configuration not stated) as well. 0.90

Please do the same for O=[N+]([O-])c1ccc(N2C(O)CC(c3ccccc3)N2C(c2ccc(O)cc2)N2CCOCC2)c([N+](=O)[O-])c1 (configuration not stated) as well. 0.90

Please do the same for CC(C)=CCC/C(C)=C\C(N1CCOCC1)N1C(c2ccccc2)CC(O)N1c1ccc([N+](=O)[O-])cc1[N+](=O)[O-] (configuration not stated) as well. 1.20

Please do the same for Clc1ccccc1C(c1ccccc1)(c1ccccc1)n1ccnc1 as well. -0.30

====

Form field: MIC (one value per entry).
Assay: Antifungal activity against Cryptococcus neoformans after 24 hrs by two fold dilution method
Type: functional
The answer is to be given in µg/mL; state only the numeric part.

Completed entries (count: 4):
{"MOLECULE": "CC(C)=CCC/C(C)=C\\C(N1CCOCC1)N1C(c2ccccc2)CC(O)N1c1ccc([N+](=O)[O-])cc1[N+](=O)[O-] (stereo unspecified)", "MIC, µg/mL": 32}
{"MOLECULE": "Clc1ccccc1C(c1ccccc1)(c1ccccc1)n1ccnc1 [CLOTRIMAZOLE]", "MIC, µg/mL": 0.5}
{"MOLECULE": "O=[N+]([O-])c1ccc(C(N2CCOCC2)N2C(c3ccccc3)CC(O)N2c2ccc([N+](=O)[O-])cc2[N+](=O)[O-])cc1 (stereo unspecified)", "MIC, µg/mL": 32}
{"MOLECULE": "O=[N+]([O-])c1ccc(N2C(O)CC(c3ccccc3)N2C(c2ccc(Cl)cc2)N2CCOCC2)c([N+](=O)[O-])c1 (stereo unspecified)", "MIC, µg/mL": 64}

Quick one: MIC of O=[N+]([O-])c1ccc(N2C(O)CC(c3ccccc3)N2C(c2c[nH]c3ccccc23)N2CCOCC2)c([N+](=O)[O-])c1 (stereo unspecified) ? 64

Please do the same for O=[N+]([O-])c1ccc(N2C(O)CC(c3ccccc3)N2C(c2ccc3c(c2)OCO3)N2CCOCC2)c([N+](=O)[O-])c1 (stereo unspecified) as well. 64

Please do the same for O=[N+]([O-])c1ccc(N2C(O)CC(c3ccccc3)N2C(c2ccccn2)N2CCOCC2)c([N+](=O)[O-])c1 (stereo unspecified) as well. 8

Please do the same for O=[N+]([O-])c1ccc(N2C(O)CC(c3ccccc3)N2C(c2cncs2)N2CCOCC2)c([N+](=O)[O-])c1 (stereo unspecified) as well. 32
